These entries and their values trace back to ChEMBL document CHEMBL1201862.

Test system: U-251
protocol: NCI tumour cell line growth inhibition, 48 h
Calls of active or inactive are those of the source. Cut-off read from the data, not from the text of the source: active = GI50 up to about 1.1 µM and inactive = higher.
Hi there, I'd appreciate the recorded GI50 for every entry that follows.

Q: Please report the recorded GI50 for `c1ccc(CNCCN2CCNCC2)nc1` .
Result: > 100 µM (inactive)

Q: Let us now turn to `Cc1cc(NS(=O)(=O)c2ccc(Nc3c4ccccc4nc4c(C(=O)NC(CO)(CO)CO)cccc34)cc2)no1`
Result: 34.2 µM (inactive)

Q: Also `C=CCN1C(=O)/C(=C\c2cc(C(C)(C)C)c(O)c(C(C)(C)C)c2)NC1=S` ?
Result: 14.3 µM (inactive)

Q: Now consider CC(C)CCCC(C)[C@H]1CC[C@H]2N/C(=N/Cc3ccccc3)CCC[C@]12C (stereo partly specified) .
Result: 1.78 µM (inactive)

Q: Entry to check: CCC1CN2CCc3cc(OC)c(OC)cc3C2CC1CC1c2cc(OC)c(OC)cc2CCN1C(=O)C1CCCN1C(=O)OCc1ccccc1 (stereo unspecified)
Result: 15 µM (inactive)

Q: Let us now turn to CC(=O)C1=C(C)N2C(=NC3=C(CCc4ccccc43)C2c2ccc(F)cc2)S1 (stereo unspecified)
Result: 84.7 µM (inactive)

Q: Next: O=C1CC(CC(O)C(O)C(O)CO)CC(=O)N1 (stereo unspecified)
Result: > 100 µM (inactive)

Q: Please do the same for `COc1ccc2cc(CNCCCCCCNC(=O)Nc3cccc4ccccc34)ccc2c1` as well.
Result: > 100 µM (inactive)

Q: And the next one, `C[C@]12CC[C@@H]3c4ccccc4CC[C@H]3[C@@H]1CC[C@@H]2O` ?
Result: > 100 µM (inactive)

Q: Also, CCCCN(CCCC)CC(O)c1cc(-c2ccc(Cl)c(Cl)c2)nc2c(Cl)cc(Cl)cc12 (stereo unspecified) please.
Result: > 100 µM (inactive)

Q: Now consider `CC(C)(C)c1cc(/C=C(\C#N)C(=O)NCCO)cc(C(C)(C)C)c1O` .
Result: 18 µM (inactive)

Q: // query: CCCCCCNC(=O)CCC(NC(=O)c1ccc(N(C)Cc2cnc3nc(N)nc(N)c3n2)cc1)C(=O)NCCCCCC (stereo unspecified)
Result: > 100 µM (inactive)

Q: Then what about the molecule COc1ccc(C(c2cc3c(cc2O)OCO3)N2CCOCC2)cc1OC (stereo unspecified) ?
Result: 9.64 µM (inactive)

Q: Entry `COc1ccc(/C=C/c2ccnc3ccccc23)cc1OC` please
Result: 46.9 µM (inactive)

Q: Param item: COC(=O)C1C/C(=C/N(C)C)C(=S)N1 (stereo unspecified)
Result: > 100 µM (inactive)

Q: Now consider O=C1CCCCC1CN1CCCC1 (stereo unspecified) and answer again.
Result: > 100 µM (inactive)

Q: Same question, CC1(CCOCc2ccccc2)NC(=O)NC1=O (stereo unspecified) this time
Result: > 100 µM (inactive)

Q: Same read-out for `O=C(O)c1ccccc1/C=C1/Cc2ccc3c(c2C1=O)CCC3` ?
Result: 27.6 µM (inactive)

Q: Request: `CCCCCCCCCCCC(=O)OCCOCCOCCOCCOCCOCc1ccc(OC)cc1`
Result: > 100 µM (inactive)

Q: Check `O=c1[nH]c(=O)c2ncn(-c3ccc([N+](=O)[O-])cn3)c2[nH]1` too.
Result: > 100 µM (inactive)

Q: Request: `COC(=O)c1ccc(NCc2c(O)ccc(O)c2Br)cc1Cl`
Result: 16.7 µM (inactive)
